Hello, the source for this data is the nanobody polyreactivity screen of Harvey et al. (2022), in case you need it.

experimental.details: yeast display, Sf9 membrane polyspecificity reagent, FACS + sequencing; frameworks hold sequencing errors
assay.endpoint: polyreactivity (PSR sort gate)

INSERT INTO assay_data (item_sequence, result) VALUES
  ('QVQLVESRGGLVQAGGSLRLSCAASGRIFAWNAMGWSRQAPGKERELVAVITSGGNTNYADSVTGRFTISRDNAKNTVYLQLNSLKPEDTAVYYCPKIGYAKRTRFWSHYDYWGQGTQVTVSS', 'high polyreactivity'),
  ('QVQLVESGGGLVQAGGSLRLSCAASGSTFQVYAMGWYRPAPRKERELVATIRRTGGSTYYADSVKGRFTISRDNAKNTVYLQMNSLKPEDTAVYYCAARTYGGIVLRLDYWGQGTQVTVSS', 'high polyreactivity');
